Biological target: T1, human CTLA-4 (human, UniProt P16410 36-223)
T1 construct: also called huCTLA4
T1 sequence (P16410 36-223): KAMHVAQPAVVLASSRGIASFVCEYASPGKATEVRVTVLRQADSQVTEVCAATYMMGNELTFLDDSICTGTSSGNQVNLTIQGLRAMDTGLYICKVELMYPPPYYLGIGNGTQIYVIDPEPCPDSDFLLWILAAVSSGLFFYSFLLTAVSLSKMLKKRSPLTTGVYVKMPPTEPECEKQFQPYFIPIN
Experiment: flow cytometry on CHO cells stably expressing CTLA4
measurement.type: MFI at 33.3 nM
Entry format: amount then unit.

Exam item: Return MFI at 33.3 nM (reported value) for this binder: CD80 E35D/D46V/M47L/V68M/L85Q/E88D IgV-Fc, delta linker (Fc fusion, Fused directly to the Fc with no additional linker; also called E35D/D46V/M47L/V68M/L85Q/E88D delta) VIHVTKEVKEVATLSCGHNVSVEELAQTRIYWQKDKKMVLTMMSGVLNIWPEYKNRTIFDITNNLSIMILALRPSDEGTYECVVQKYDKDAFKREHLAEVTLSVKTHTCPPCPAPEAEGAPSVFLFPPKPKDTLMISRTPEVTCVVVDVSHEDPEVKFNWYVDGVEVHNAKTKPREEQYNSTYRVVSVLTVLHQDWLNGKEYKCKVSNKALPAPIEKTISKAKGQPREPQVYTLPPSREEMTKNQVSLTCLVKGFYPSDIAVEWESNGQPENNYKTTPPVLDSDGSFFLYSKLTVDKSRWQQGNVFSCSVMHEALHNHYTQKSLSLSPG
Marked response: 12200 MFI
